System: 361931-004-R-J1-PDC multicell spheroid viability
Experiment: Anticancer human tumor 361931-004-R-J1-PDC patient-derived colon adenocarcinoma cell line growth inhibition [PI3K]
Conditions: second compound 0.01 µM; first compound 1 µM; stronger effect = lower value
Kindly state viability, T/C for each of the entries shown.
Dear colleague, please return just the value in %, with no unit written.

Could you tell me which viability, T/C is on file for CCCS(=O)(=O)Nc1ccc(F)c(C(=O)c2c[nH]c3ncc(-c4ccc(Cl)cc4)cc23)c1F + COc1c(OCCCN2CCOCC2)ccc2c3n(c(=NC(=O)c4cnc(N)nc4)nc12)CCN3 ?
88.1

Could you tell me which viability, T/C is on file for CCCS(=O)(=O)Nc1ccc(F)c(C(=O)c2c[nH]c3ncc(-c4ccc(Cl)cc4)cc23)c1F + CC(Nc1ccc2c(c1)OCCn1cc(N3C(=O)OCC3C(F)F)nc1-2)C(N)=O ?
83.6

Could you tell me which viability, T/C is on file for CC(Cn1ccc(-c2ccc(C#N)c(Cl)c2)n1)NC(=O)c1cc(C(C)O)[nH]n1 (stereo not drawn) + COc1c(OCCCN2CCOCC2)ccc2c3n(c(=NC(=O)c4cnc(N)nc4)nc12)CCN3 ?
93.5

----------
Kindly state viability, T/C for each of the entries shown.
Tested on: 361931-004-R-J1-PDC multicell spheroid viability
Experiment: Anticancer human tumor 361931-004-R-J1-PDC cell line growth inhibition [PI3K];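 note: spheroids exposed to agents for seven days before readout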
Settings: second compound 0.0316 µM; first compound 0.316 µM; stronger effect = lower value

Lookup: viability, T/C / 361931-004-R-J1-PDC multicell spheroid viability / CNC(=O)c1ccc(N2C(=S)N(c3ccc(C#N)c(C(F)(F)F)c3)C(=O)C2(C)C)cc1F + CC(Nc1ncnc2nc[nH]c12)c1cc2cccc(Cl)c2c(=O)n1-c1ccccc1
97.7%

Lookup: viability, T/C / 361931-004-R-J1-PDC multicell spheroid viability / CNC(=O)c1ccc(N2C(=S)N(c3ccc(C#N)c(C(F)(F)F)c3)C(=O)C2(C)C)cc1F + CC(Nc1ccc2c(c1)OCCn1cc(N3C(=O)OCC3C(F)F)nc1-2)C(N)=O
105%

Lookup: viability, T/C / 361931-004-R-J1-PDC multicell spheroid viability / CC1(C)CCC(Nc2ncc(C(F)(F)F)c(-c3c[nH]c4c(P(C)(C)=O)c(C#N)ccc34)n2)CN1 (stereo not given) + COc1c(OCCCN2CCOCC2)ccc2c3n(c(=NC(=O)c4cnc(N)nc4)nc12)CCN3
67.7%

Lookup: viability, T/C / 361931-004-R-J1-PDC multicell spheroid viability / C#Cc1c(F)ccc2cc(O)cc(-c3ncc4c(N5CC6CCC(C5)N6)nc(OCC56CCCN5CC(F)C6)nc4c3F)c12 (stereo not given) + CC(Nc1ccc2c(c1)OCCn1cc(N3C(=O)OCC3C(F)F)nc1-2)C(N)=O
106%

Lookup: viability, T/C / 361931-004-R-J1-PDC multicell spheroid viability / Cn1nccc1Nc1nccc(-c2ccn(C(CO)c3ccc(Cl)c(F)c3)c(=O)c2)n1 (stereo not given) + COc1c(OCCCN2CCOCC2)ccc2c3n(c(=NC(=O)c4cnc(N)nc4)nc12)CCN3
77.4%

----------
Tested on: 361931-004-R-J1-PDC multicell spheroid viability
Test: Anticancer human tumor 361931-004-R-J1-PDC cell line growth inhibition [PI3K];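 note: spheroids exposed to agents for seven days before readout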
Conditions: second compound 0.0316 µM; first compound 0.949 µM; stronger effect = lower value
outcomeMeasure: viability, T/C (%)
Dear colleague, please return just the value in %, with no unit written.

Could you tell me which viability, T/C is on file for Cn1cnc2c(F)c(Nc3ccc(Br)cc3Cl)c(C(=O)NOCCO)cc21 + CC(Nc1ccc2c(c1)OCCn1cc(N3C(=O)OCC3C(F)F)nc1-2)C(N)=O ?
62

Could you tell me which viability, T/C is on file for Cn1cnc2c(F)c(Nc3ccc(Br)cc3Cl)c(C(=O)NOCCO)cc21 + Cc1nc(NC(=O)N2CCCC2C(N)=O)sc1-c1ccnc(C(C)(C)C(F)(F)F)c1 ?
75.8

Could you tell me which viability, T/C is on file for Cn1cnc2c(F)c(Nc3ccc(Br)cc3Cl)c(C(=O)NOCCO)cc21 + CC(Nc1ncnc2nc[nH]c12)c1cc2cccc(Cl)c2c(=O)n1-c1ccccc1 ?
82

Could you tell me which viability, T/C is on file for Cn1cnc2c(F)c(Nc3ccc(Br)cc3Cl)c(C(=O)NOCCO)cc21 + COc1c(OCCCN2CCOCC2)ccc2c3n(c(=NC(=O)c4cnc(N)nc4)nc12)CCN3 ?
45.3

Attribution: PubChem BioAssay AID1963979
